IC50: recorded values
target: JMJD2C (Homo sapiens (Human))
Sequence (Q9H3R0 2-372): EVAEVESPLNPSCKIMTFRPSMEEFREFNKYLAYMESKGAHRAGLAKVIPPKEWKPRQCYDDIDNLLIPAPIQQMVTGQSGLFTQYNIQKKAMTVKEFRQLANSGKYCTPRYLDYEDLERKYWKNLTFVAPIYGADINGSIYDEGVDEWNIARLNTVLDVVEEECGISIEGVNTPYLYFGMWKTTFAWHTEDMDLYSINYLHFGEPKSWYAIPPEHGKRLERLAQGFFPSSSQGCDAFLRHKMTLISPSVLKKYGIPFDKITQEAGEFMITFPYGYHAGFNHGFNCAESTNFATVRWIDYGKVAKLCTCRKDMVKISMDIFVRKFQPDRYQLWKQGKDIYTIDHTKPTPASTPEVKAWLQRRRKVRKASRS

As a guide, the following entries are already answered.
[[record]]
compound = "COc1ccc2c(c1)CCCC2CNc1cnccc1C(=O)O (stereo not shown)"
result = "100 to 1000 nM"

[[record]]
compound = "COc1ccc(CNc2cnccc2C(=O)O)cc1"
result = "≤ 100 nM"

[[record]]
compound = "O=C(O)c1ccncc1NCC1CCCc2cc(OCC3CC3)ccc21 (stereo not shown)"
result = "100 to 1000 nM"


Measured on JMJD2C (Homo sapiens (Human)), O=C(O)c1ccncc1NC[C@@H]1CCOc2cc(C3CC3)ccc21 has a documented IC50 of 100 to 1000 nM

Test item O=C(O)c1ccncc1NCc1ccc(Cl)cc1Cl ; JMJD2C (Homo sapiens (Human)); reported IC50 was ≤ 100 nM

---

// IC50 lookup, one value per entry
molecular target: Jarid1B (Homo sapiens (Human))
Sequence (Q9UGL1 2-751): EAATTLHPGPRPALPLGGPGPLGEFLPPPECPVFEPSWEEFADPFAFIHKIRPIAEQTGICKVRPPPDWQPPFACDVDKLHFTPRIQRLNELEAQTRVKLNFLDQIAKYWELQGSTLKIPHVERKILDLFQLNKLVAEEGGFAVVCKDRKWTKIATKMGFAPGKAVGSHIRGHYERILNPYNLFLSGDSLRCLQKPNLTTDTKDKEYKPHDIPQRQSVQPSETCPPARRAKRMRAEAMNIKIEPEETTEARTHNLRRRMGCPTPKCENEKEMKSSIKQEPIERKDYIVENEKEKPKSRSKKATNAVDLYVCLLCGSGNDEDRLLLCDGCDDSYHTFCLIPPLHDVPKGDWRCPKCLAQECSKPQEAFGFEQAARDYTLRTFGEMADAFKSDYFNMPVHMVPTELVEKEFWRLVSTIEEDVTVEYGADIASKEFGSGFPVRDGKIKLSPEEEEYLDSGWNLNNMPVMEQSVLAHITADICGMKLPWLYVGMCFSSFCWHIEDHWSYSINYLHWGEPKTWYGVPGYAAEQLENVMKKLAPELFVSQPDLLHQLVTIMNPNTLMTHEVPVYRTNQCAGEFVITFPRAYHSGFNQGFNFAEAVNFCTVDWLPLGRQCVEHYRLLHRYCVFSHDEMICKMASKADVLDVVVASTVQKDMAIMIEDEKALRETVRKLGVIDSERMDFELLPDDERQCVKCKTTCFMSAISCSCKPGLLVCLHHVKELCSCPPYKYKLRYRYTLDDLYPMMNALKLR

// below: answered molecules
[[record]]
molecule = "O=C(O)c1ccncc1NCc1ccc(C(F)(F)F)cc1 [Example 8]"
tested_target = "Jarid1B (Homo sapiens (Human))"
result = "≤ 100 nM"

[[record]]
molecule = "COc1ccc(CNc2cnccc2C(=O)O)c(OC)c1 [Example 16]"
tested_target = "Jarid1B (Homo sapiens (Human))"
result = "≤ 100 nM"

[[record]]
molecule = "CN(C)Cc1ccccc1CNc1cnccc1C(=O)O [Example 13]"
tested_target = "Jarid1B (Homo sapiens (Human))"
result = "≤ 100 nM"

[[record]]
molecule = "O=C(O)c1ccncc1NCc1cccc2cc[nH]c12 [Example 29]"
tested_target = "Jarid1B (Homo sapiens (Human))"
result = "≤ 100 nM"

[[record]]
molecule = "Cc1ccc(CNc2cnccc2C(=O)O)cc1 [Example 24]"
tested_target = "Jarid1B (Homo sapiens (Human))"
result = "≤ 100 nM"


Turning now to a further record.
The recorded IC50 with Jarid1B (Homo sapiens (Human)) for O=C(O)c1ccncc1NCc1ccc(-c2ccccc2)cc1 [Example 9] was 100 to 1000 nM

---

Test system UniProtKB Q9H3R0, IC50 listed for each of the compounds.

Record excerpt, results attached:
[[record]]
compound = "Cc1cc(C)c2c(c1)C(CNc1cnccc1C(=O)O)CCC2 (centres unmarked)"
result = "1 to 10 µM"

[[record]]
compound = "O=C(O)c1ccncc1NCC1CCOc2cc(CCC3CC3)ccc21 (centres unmarked)"
result = "0.1 to 1 µM"

[[record]]
compound = "O=C(O)c1ccncc1NCC1CCCc2c(OCC3CC3)cccc21 (centres unmarked)"
result = "1 to 10 µM"

[[record]]
compound = "O=C(O)c1ccncc1NCC1CCOc2ccccc21 (centres unmarked)"
result = "≤ 0.1 µM"


Okay, next one:
Simply: COc1ccc2c(c1)CCC[C@@H]2CNc1cnccc1C(=O)O , UniProtKB Q9H3R0, IC50 = 0.1 to 1 µM

---

molecular target: JMJD2C (Homo sapiens (Human))
measurement_type: IC50

The following compounds have reported results that may help.
[[record]]
compound = "O=C(O)c1ccnnc1NCC1CCCc2cc(OCCC(F)(F)F)ccc21 (centres unmarked)"
tested_target = "JMJD2C (Homo sapiens (Human))"
result = "100 to 1000 nM"

[[record]]
compound = "COc1ccc(CNc2cnccc2C(=O)O)c(OC)c1"
tested_target = "JMJD2C (Homo sapiens (Human))"
result = "100 to 1000 nM"

[[record]]
compound = "O=C(O)c1ccncc1NC[C@H]1CCCc2ccccc21"
tested_target = "JMJD2C (Homo sapiens (Human))"
result = "100 to 1000 nM"

[[record]]
compound = "O=C(O)c1ccncc1NCC1CCCc2ccc(C3CC3)cc21 (centres unmarked)"
tested_target = "JMJD2C (Homo sapiens (Human))"
result = "100 to 1000 nM"


Form: compound = Cc1ccc2c(c1C)CCCC2CNc1cnccc1C(=O)O (centres unmarked) ; IC50 = 100 to 1000 nM
